Across several studies, molecules have been characterized by their IC50 on Coagulation factor X (Homo sapiens, UniProt P00742); a selection follows.
PROPERTY LABEL: IC50

{"STRUCTURE": "Nc1noc2c(N3CC[C@@H](NC(=O)c4ccc(-c5cncnc5)cc4Cl)C3)ncc(Cl)c12", "PROPERTY LABEL": "IC50", "MEASURED": "> 100 µM"}
{"STRUCTURE": "CNC(=O)[C@@H]1C[C@H](N2CCc3c(cccc3OCCOC)C2)CN1C(=O)c1ccc(CN)c(OC)c1", "PROPERTY LABEL": "IC50", "MEASURED": "> 100 µM"}
{"STRUCTURE": "Nc1nc(-c2ccccn2)nn1C(=O)c1ccc(NC(=O)C(F)(F)F)cc1", "PROPERTY LABEL": "IC50", "MEASURED": "> 5 µM"}
{"STRUCTURE": "C/C(=C(\\F)C(=O)Nc1ccc(-c2ccccc2S(N)(=O)=O)cc1Br)c1cc(Br)ccc1N", "PROPERTY LABEL": "IC50", "MEASURED": "> 11 µM"}
{"STRUCTURE": "Cc1nn(-c2ccccc2)c(C)c1NC(=O)COC(=O)Cn1c(C)csc1=O", "PROPERTY LABEL": "IC50", "MEASURED": "> 200 µM"}
{"STRUCTURE": "NCc1ccc(NC(=O)c2c([O-])ccc[n+]2Cc2nccn2Cc2ccccc2)cc1", "PROPERTY LABEL": "IC50", "MEASURED": "> 50 µM"}
{"STRUCTURE": "COc1ccc2cc(C(=O)Nc3ccccc3)c(=O)oc2c1", "PROPERTY LABEL": "IC50", "MEASURED": "> 50 µM"}
